As shown below, each of these molecules has a reported GI50 value.
test system: BT-549; assay: NCI tumour cell line growth inhibition, 48 h
The source made the active and inactive calls. Cut-off read from the data, not from the text of the source: active = GI50 up to about 1.1 µM and inactive = higher. Where a SMILES comes first, the peptide text is derived from it. The star is where a group is joined. Boc = CC(C)(C)OC(=O)*; Bn = c1ccc(C*)cc1
Readout Type: GI50

INSERT INTO measurements (molecule, readout_type, obs_value) VALUES
  ('CCN1C(NCCO)=NS(=O)(=O)c2ccccc21', 'GI50', '> 100 µM (inactive)'),
  ('O=C(Nc1nc(C23CC4CC(CC(C4)C2)C3)cs1)c1cc2ccccc2oc1=O', 'GI50', '> 100 µM (inactive)'),
  ('COc1ccc(-c2cc(-c3ccc(Nc4ccnc5cc(C(F)(F)F)ccc45)cc3)nc(N)c2C#N)c2ccccc12', 'GI50', '36.6 µM (inactive)'),
  ('CC1(C)N=C(N)N=C(N)N1c1cccc(CSc2ccccc2)c1', 'GI50', '15.9 µM (inactive)'),
  ('CC(=O)NC1=C(OS(=O)(=O)c2ccc(C)cc2)CN(C)C1=O', 'GI50', '3.09 µM (inactive)'),
  ('O=C(c1ccccc1)c1c(C(F)(F)F)[n+]([O-])c2cc(Cl)c(Cl)cc2[n+]1[O-]', 'GI50', '1.39 µM (inactive)'),
  ('CCN(CC)C(=S)SS(=O)(=O)c1cccc(N)c1', 'GI50', '> 100 µM (inactive)'),
  ('Nc1ncnc2c1ccn2COC(CO)CO', 'GI50', '> 100 µM (inactive)'),
  ('COc1ccc(N(C)S(=O)(=O)c2ccccc2)cc1', 'GI50', '> 100 µM (inactive)'),
  ('CC1(C)CCC2(C(=O)OC3OC(CO)C(O)C(O)C3O)CCC3(CO)C(=CCC4C5(C)CC(O)C(O)C(C)(C(=O)OC6OC(CO)C(O)C(O)C6O)C5CCC43C)C2C1 (stereo not given)', 'GI50', '> 100 µM (inactive)'),
  ('COc1cc2nncc(SCc3ccc(Cl)c(Cl)c3)c2cc1OC', 'GI50', '> 100 µM (inactive)'),
  ('CCCCCCCCCCCC[C@@H](O)[C@H]1CC[C@H]([C@H](O)CCCC[C@H](O)CCCCC[C@@H](O)CC2=C[C@H](C)OC2=O)O1', 'GI50', '10 µM (inactive)'),
  ('CN(C)CCCNC(=O)c1cn2c(ccc3sc4ccccc4c(=O)c32)n1', 'GI50', '18.5 µM (inactive)'),
  ('Cc1ccc(NC=O)c(-c2c(N)[nH]c(=S)[nH]c2=O)c1', 'GI50', '> 100 µM (inactive)'),
  ('CCCCCCCCC/C=C1/CC(CO)(COC(=O)CC(C(C)C)C(C)C)OC1=O (stereo not given)', 'GI50', '14.3 µM (inactive)'),
  ('COc1ccc(C2SCC(=O)N2NC(=O)c2ccc(NC(C)=O)cc2)c(OC)c1 (stereo not given)', 'GI50', '> 100 µM (inactive)'),
  ('Oc1nc2c(c(-c3cccc(Cl)c3)n1)COC/C2=C\c1cccc(Cl)c1', 'GI50', '> 100 µM (inactive)'),
  ('C=CCCCC1SC2=C(CC)CCCN2C1=O (stereo not given)', 'GI50', '46.3 µM (inactive)'),
  ('O=C(N/N=C\c1cccc(O)c1)c1ccncc1', 'GI50', '> 100 µM (inactive)'),
  ('COC(=O)C(CC(C)C)NC(=O)C(C)NC(=O)C(Cc1ccc(OCc2ccccc2)cc1)NC(=O)C(COCc1ccccc1)NC(=O)OC(C)(C)C (stereo not given) (Boc-S(Bn)Y(Bn)AL-OMe; configuration not given here)', 'GI50', '> 100 µM (inactive)');
